Tested on: TRKA
Construct: gene NTRK1
study-conditions: concentration: 1 μM, replicates: in singlicate; n = 1;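 also: KINOMEscan kinase panel screen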
Values of %Inh greater than or equal to 20% map to true; values below map to false.

- compound: "Cn1cc(-c2ccc3c(c2)CCN3C(=O)Cc2ccccc2Cl)c2c(N)ncnc21"
  class-name: "true"
- compound: "Cl.Nc1ncnc2occ(-c3ccc(NC(=O)Nc4cc(C(F)(F)F)ccc4F)cc3)c12"
  class-name: "true"
- compound: "COc1ccc(Nc2ncc(C#N)c(Nc3ccccc3C(N)=O)n2)cc1N1CCN(C)CC1.Cl"
  class-name: "true"
- compound: "CSc1ccc(-c2cc3ncnc(SCC(=O)O)c3s2)cc1"
  class-name: "false"
- compound: "COc1ccc(Nc2nccc(N3CCC(NC(=O)Nc4cccc(C(C)=O)c4)C3)n2)cc1 (centres unmarked)"
  class-name: "true"

Task: Entry O=C(NCCNc1ccnc(Nc2ccc(F)cc2)n1)c1cc2ccccc2s1 : is its %Inh no less than 20%?
Result: false

Task: Quick one: C[C@@H](Oc1cc(-n2cnc3ccc(NC(=O)NC(C)(C)C)cc32)sc1C(N)=O)c1ccccc1Cl
Result: true

###

Assignment: determine reported %Inh for the given compounds.
Test system: YANK3
Construct: gene STK32C
study-conditions: concentration: 1 μM, replicates: in singlicate; n = 1
Give bare numbers, in %.

Example cases with answers are listed next.
- compound: "O=C(c1ccc(-c2cc(-c3c[nH]nc3-c3ccccn3)ccn2)cc1)N1CCOCC1"
  %Inh / %: 0
- compound: "Cc1ccc(C(=O)NCC(N)=O)cc1-n1c(C)cc(OCc2ccc(F)cc2F)c(Br)c1=O"
  %Inh / %: 6
- compound: "NCC(NC(=O)c1cc(-c2cn[nH]c2)c(-c2ccnc3[nH]ccc23)s1)c1ccccc1.O=C(O)C(F)(F)F.O=C(O)C(F)(F)F (stereo not shown)"
  %Inh / %: 8

# evaluate next
Task: Which %Inh value is on record for Nc1nccc(-c2c(-c3ccc(F)cc3)ncn2C2CCN(CC(F)(F)F)CC2)n1 ?
Result: 0

###

System: BTK
study-conditions: concentration: 1 μM, replicates: in singlicate; n = 1
observed-property: %Inh (%)
One number for each entry, in %.

Example cases with answers are listed next.
- compound: "O=C1NC(=O)C(N2CCc3ccccc32)=C1c1cccc(Cl)c1 [SB-408010]"
  observed-property: "%Inh"
  unit-spec: "%"
  experimental-result: 23
- compound: "Cc1c2ccc(N(C)c3ccnc(Nc4cccc(S(N)(=O)=O)c4)n3)cc2nn1Cc1ccccc1.Cl.Cl [GW787226]"
  observed-property: "%Inh"
  unit-spec: "%"
  experimental-result: 0
- compound: "O=C1Cc2cc(Nc3nc(NCc4cccc(S(=O)(=O)C(F)(F)F)c4)ncc3C(F)(F)F)ccc2N1"
  observed-property: "%Inh"
  unit-spec: "%"
  experimental-result: 0
- compound: "COc1ccc(Nc2ncc(C#N)c(Nc3ccccc3C(N)=O)n2)cc1N1CCN(C)CC1.Cl [GSK1558669]"
  observed-property: "%Inh"
  unit-spec: "%"
  experimental-result: 97.2
- compound: "Cn1ccc2ncnc(Oc3ccc(NC(=O)Nc4ccncc4)c(Cl)c3)c21"
  observed-property: "%Inh"
  unit-spec: "%"
  experimental-result: 0

Please supply %Inh for each of the following items, keeping them in order.
1. O=c1cc(N2CCOCC2)nc2n(Cc3cccc4ccccc34)ccn12 [GSK2333389]
2. N#Cc1c(N2CCOCC2)sc(-c2ccn[nH]2)c1-c1ccc(Cl)cc1

Result:
1. 0
2. 8

###

Test system: SBK1
study-conditions: concentration: 1 μM, replicates: in singlicate; n = 1
observed-property: %Inh (%)
Answers are plain numbers, in %.

- molecule: "Cc1ccc(NC(=O)c2ccnc(N3CCN(C)CC3)c2)cc1-c1ccc(C(=O)NCC2CC2)cc1"
  %Inh [%]: 0
- molecule: "Cc1cccc(-c2nc(-c3ccc(S(C)(=O)=O)cc3)sc2-c2ccncc2)c1"
  %Inh [%]: 1
- molecule: "Cc1cccc(-c2nc(Nc3ccc4ncsc4c3)c3ccccc3n2)n1"
  %Inh [%]: 19

Please supply %Inh for each of the following items, keeping them in order.
1. Cc1cn2c(=O)cc(N3CCOCC3)nc2n1Cc1cccc(Cl)c1Cl
2. Fc1ccc(-c2ncn(CCCN3CCOCC3)c2-c2ccccn2)cc1
3. Cc1c(Cn2c(C)nn3c(=O)cc(N4CCOC(C)C4)nc23)cccc1C(F)(F)F (stereo not drawn)
4. CN1c2ccc(CNc3ccc(F)cc3)cc2-c2c(cnn2C)S1(=O)=O
5. O=C1Cc2cc(Nc3nc(NCc4cccc(S(=O)(=O)C(F)(F)F)c4)ncc3C(F)(F)F)ccc2N1
6. O=C(NOCC1CC1)c1ccc(F)c(F)c1Nc1ccc(I)cc1Cl
7. COc1ccc(Nc2ncc(C#N)c(Nc3ccccc3C(N)=O)n2)cc1N1CCN(C)CC1.Cl

Result:
0
0
33
0
0
0
93.9

###

Test system: NEK5
study-conditions: concentration: 1 μM, replicates: in singlicate; n = 1
observed-property: %Inh (%)
Answers are plain numbers, in %.

Please supply %Inh for each of the following items, keeping them in order.
1. COc1cc(Nc2nccc(N3CCC(NC(=O)c4cccc(NC(C)=O)c4)C3)n2)cc(OC)c1OC (stereo not drawn)
2. CSc1ccc(-c2cc3ncnc(SCC(=O)O)c3s2)cc1

Result:
1: 100; 2: 0

###

System: RSK4(Kin.Dom.1-N-terminal)
Construct: gene RPS6KA6
study-conditions: concentration: 1 μM, replicates: in singlicate; n = 1
Assignment: determine reported %Inh for the given compounds.
I'd appreciate it if you wrote the number followed by its unit.

- compound: "COc1ccc(Nc2nccc(N3CCC(NC(=O)Nc4cc(C)ccc4C)C3)n2)cc1 (stereo not drawn) [GSK1379741]"
  target-system: "RSK4(Kin.Dom.1-N-terminal)"
  experimental-result: "0%"
- compound: "CC(=O)Nc1ccc(COc2ccc(Nc3ccnc4cc(-c5ccccn5)ccc34)cc2)cc1.Cl [GW440148]"
  target-system: "RSK4(Kin.Dom.1-N-terminal)"
  experimental-result: "0%"
- compound: "CCCCCc1nc2c(N)ncnc2n1CCCCC [SKF-97255]"
  target-system: "RSK4(Kin.Dom.1-N-terminal)"
  experimental-result: "20%"
- compound: "CNc1ncnc2[nH]ncc12 [SKF-18355]"
  target-system: "RSK4(Kin.Dom.1-N-terminal)"
  experimental-result: "16%"
- compound: "c1ccc(-c2cc(-c3c[nH]nc3-c3ccccn3)ccn2)cc1 [GW576604]"
  target-system: "RSK4(Kin.Dom.1-N-terminal)"
  experimental-result: "0%"

Please supply %Inh for each of the following items, keeping them in order.
1. Nc1nccc(-c2c(-c3ccc(F)cc3)ncn2C2CCN(CC(F)(F)F)CC2)n1 [SB-236560]
2. COc1cc2c(cc1OCCN1CCN(C)CC1)ncc1c3ccc(C#N)cc3[nH]c21
3. N#Cc1ccc(-c2cc(-c3c[nH]nc3-c3ccccn3)ccn2)cc1 [GW693028]
4. Cc1cccc(-c2nc(-c3ccc(S(C)(=O)=O)cc3)sc2-c2ccncc2)c1

Result:
0%
67%
0%
30%

###

Test system: LATS2
study-conditions: concentration: 1 μM, replicates: in singlicate; n = 1
observed-property: %Inh (%)
Give bare numbers, in %.

Example cases with answers are listed next.
- molecule: "O=C1Cc2cc(Nc3nc(NCc4cccc(S(=O)(=O)C(F)(F)F)c4)ncc3C(F)(F)F)ccc2N1"
  observed-property: "%Inh"
  experimental-result: 0
- molecule: "O=c1cc(N2CCOCC2)nc2n(Cc3cccc4ccccc34)ccn12"
  observed-property: "%Inh"
  experimental-result: 0
- molecule: "Fc1ccc(-c2nn3c(OCC(F)(F)F)cccc3c2-c2ccncc2)cc1"
  observed-property: "%Inh"
  experimental-result: 0
- molecule: "Cc1nnc(-c2ccc3ncc(-c4ccc(S(C)=O)cc4)n3c2)o1 (stereo not drawn)"
  observed-property: "%Inh"
  experimental-result: 13
- molecule: "Cc1cn2c(=O)cc(N3CCOCC3)nc2n1Cc1cccc(Cl)c1Cl"
  observed-property: "%Inh"
  experimental-result: 0
- molecule: "COc1ccc(Nc2nccc(N3CCC(NC(=O)Nc4cc(C)ccc4C)C3)n2)cc1 (stereo not drawn)"
  observed-property: "%Inh"
  experimental-result: 0

Please supply %Inh for each of the following items, keeping them in order.
1. Fc1ccc(-c2ncn(CCCN3CCOCC3)c2-c2ccccn2)cc1
2. COc1ccc(Nc2ncc(C#N)c(Nc3ccccc3C(N)=O)n2)cc1N1CCN(C)CC1.Cl
3. Cc1nnc(-c2ccc3occ(-c4ccc(C(C)O)cc4)c3c2)o1 (stereo not drawn)
4. CN(C1=C(c2ccccc2)C(=O)NC1=O)c1ccccc1

Result:
[0, 98.9, 12, 14]

Please supply %Inh for each of the following items, keeping them in order.
1. Cc1c(Cn2c(C)nn3c(=O)cc(N4CCOC(C)C4)nc23)cccc1C(F)(F)F (stereo not drawn)
2. Cc1ccc(C(=O)NCC(N)=O)cc1-n1c(C)cc(OCc2ccc(F)cc2F)c(Br)c1=O
3. CN1c2ccc(NCc3ccc(F)cc3)cc2-c2c(cnn2C)S1(=O)=O
4. CCn1cnc2c(N)ncnc21
5. COc1cc2ncn(-c3cc(OCc4sccc4Cl)c(C(N)=O)s3)c2cc1OC
6. NS(=O)(=O)c1cccc(-c2ccc3nccc(-c4cccc(S(N)(=O)=O)c4)c3c2)c1

Result:
1: 0; 2: 0; 3: 0; 4: 21; 5: 0; 6: 0

Please supply %Inh for each of the following items, keeping them in order.
1. Cc1nnc(-c2ccc(C)c(-c3ccc(C(=O)Nc4ccc(NS(C)(=O)=O)cc4)cc3)c2)o1
2. Cc1cccc(-c2nc(-c3ccc(S(C)(=O)=O)cc3)sc2-c2ccncc2)c1
3. N#Cc1ccc(-c2cc(-c3c[nH]nc3-c3ccccn3)ccn2)cc1
4. O=C(NCCNc1ccnc(Nc2ccc(F)cc2)n1)c1cc2ccccc2s1
5. Cn1ccc2ncnc(Oc3ccc(NC(=O)Nc4ccncc4)c(Cl)c3)c21
6. C[C@@H](Oc1cc(-n2cnc3ccc(NC(=O)NC(C)(C)C)cc32)sc1C(N)=O)c1ccccc1Cl
7. NS(=O)(=O)c1cccc(-c2ccc3ncc(N4CCOCC4)nc3c2)c1
8. CCc1nc(-c2cccc(C)c2)c(-c2ccnc(NCc3ccccc3)c2)s1

Result:
1
50
0
0
0
12
9
0

Please supply %Inh for each of the following items, keeping them in order.
1. Cc1c2ccc(N(C)c3ccnc(Nc4cccc(S(N)(=O)=O)c4)n3)cc2nn1Cc1ccccc1.Cl.Cl
2. Nc1nc(-c2ccc3c(N)n[nH]c3c2)cc(N2CCCC2)n1
3. N#Cc1c(N2CCOCC2)sc(-c2ccn[nH]2)c1-c1ccc(Cl)cc1
4. O=C(Nc1cccc(-c2nn3ncccc3c2-c2ccnc(Nc3cccc(C(F)(F)F)c3)n2)c1)c1c(F)cccc1F
5. COC(=O)Nc1nc2cc(Oc3ccc(NC(=O)Nc4cc(F)ccc4F)cc3)ccc2[nH]1.Cl
6. [2H]C([2H])(c1cccc(C(F)(F)F)c1C)n1ccn2c(=O)nc(N3CCOCC3)cc12
7. COCCNC(=O)c1ccc(-c2cc(C(=O)NC3CC3)cc(F)c2C)cc1
8. O=C(NOCC1CC1)c1ccc(F)c(F)c1Nc1ccc(I)cc1Cl

Result:
[0, 5, 15, 6, 0, 0, 0, 7]

Please supply %Inh for each of the following items, keeping them in order.
1. O=C1NC(=O)C(N2CCc3ccccc32)=C1c1cccc(Cl)c1
2. NS(=O)(=O)CCc1cccc(Nc2nccc(-c3c(-c4cccc(NC(=O)c5c(F)cccc5F)c4)nn4ccccc34)n2)c1

Result:
10
7

Please supply %Inh for each of the following items, keeping them in order.
1. CC(=O)Nc1ccc(COc2ccc(Nc3ccnc4cc(-c5ccccn5)ccc34)cc2)cc1.Cl
2. CSc1ccc(-c2cc3ncnc(SCC(=O)O)c3s2)cc1

Result:
[0, 4]

These measurements were taken from paper PMC5540273.
